- System: ESAT-6 peptide-specific IFN-γ-secreting T cells from peripheral blood
- Assay type: cell-based, human
- condition: […]; peptide 10 μg/ml, 3×10^5 PBMC/well; positive = at least 5 IFN-γ SFCs more than and at least twice negative control
recorded metric: % of TB patients responding to individual peptide (%)

INSERT INTO measurements (sequence, endpoint_result) VALUES
  ('NNALQNLARTISEAG [ES14]', 28),
  ('MTEQQWNFAGIEAAA (listed as Mycobacterium tuberculosis) [ES1, 15-mer peptide from ESAT-6 of M. tuberculosis]', 57),
  ('EGKQSLTKLAAAWGG (listed as Mycobacterium tuberculosis) [ES7, 15-mer peptide from ESAT-6 of M. tuberculosis]', 15),
  ('YQGVQQKWDATATEL [ES11]', 34),
  ('QKWDATATELNNALQ (listed as Mycobacterium tuberculosis) [ES12, 15-mer peptide from ESAT-6 of M. tuberculosis]', 25),
  ('SAIQGNVTSIHSLLD (listed as Mycobacterium tuberculosis) [ES4, 15-mer peptide from ESAT-6 of M. tuberculosis]', 23),
  ('NLARTISEAGQAMAS [ES15]', 34),
  ('WNFAGIEAAASAIQG [ES2]', 40);
